- systemTested: human CB1 receptor (Homo sapiens, UniProt P21554)
- Sequence (P21554 whole entry): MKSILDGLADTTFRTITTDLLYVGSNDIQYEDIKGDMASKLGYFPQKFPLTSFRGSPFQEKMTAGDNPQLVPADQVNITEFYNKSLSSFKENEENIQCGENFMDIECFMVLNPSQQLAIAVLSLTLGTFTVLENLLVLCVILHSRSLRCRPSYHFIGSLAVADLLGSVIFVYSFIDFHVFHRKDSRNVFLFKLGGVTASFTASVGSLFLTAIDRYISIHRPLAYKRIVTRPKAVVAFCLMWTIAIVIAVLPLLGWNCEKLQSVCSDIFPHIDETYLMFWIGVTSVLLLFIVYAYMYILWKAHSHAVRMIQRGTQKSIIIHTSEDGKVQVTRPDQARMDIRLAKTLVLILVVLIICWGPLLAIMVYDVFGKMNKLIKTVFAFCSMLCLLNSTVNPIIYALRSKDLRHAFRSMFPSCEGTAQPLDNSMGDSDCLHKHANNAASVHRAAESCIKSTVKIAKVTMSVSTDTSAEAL
- Format: binding
The following molecules are shown together with reported Kb values.
Express your answer in nM, writing the number without its unit.

Completed entries (count: 4):
N#Cc1ccc(NC(=O)Nc2cccc(-c3ccnc(NCCO)n3)c2)cc1: 200
CC(=O)Nc1cccc(NC(=O)Nc2ccc(C#N)cc2)c1: 110
N#Cc1ccc(NC(=O)Nc2cccc(-c3cccc(Cl)n3)c2)cc1: 300
N#Cc1ccc(NC(=O)Nc2cccc(-c3ccnc(Cl)n3)c2)cc1: 85

Quick one: Kb of CN(C)c1ccc(NC(=O)Nc2ccc(C#N)cc2)cc1 ?
830
